Give measured TGI for each item. Keep answers brief.
Test system: K-562 leukemia
Test Details: NCI tumour cell line growth inhibition, 48 h

Compound	TGI
C=C1C(=O)O[C@@H]2[C@H](O)[C@@H](C)[C@@H]3C=CC(=O)[C@@]3(C)[C@H](OC(=O)C=C(C)C)[C@H]12	0.518 µM
C1=Nc2ccccc2C=Nc2ccccc2C=Nc2ccccc2C=Nc2ccccc21.[Cl-].[Pt+2]	93.7 µM
NC(CC1=CCC=CC1)C(=O)O (centres undefined)	> 100 µM
S=C(Nc1ccccn1)Nc1ccccc1Cl	> 100 µM

Below are some compounds; for each one, tell me its TGI.
1. COc1ccc(/C=N/NC(=O)c2cnc3[nH]c(=O)n(C)c(=O)c3c2)cc1
2. C=CCN(c1cc(OC)c2[nH]cc(C)c2c1[N+](=O)[O-])S(C)(=O)=O
3. CCOC(=O)Cn1c(=O)c2cc(-c3ccccc3)cc3c(Cl)nc4c(OC)c(OC)cc1c4c32

["> 100 µM", "> 100 µM", "> 55 µM"]

Each compound below has a reported value. Please supply its TGI.
1. CCOC(=O)C(O)(NC(=O)NC(O)(C(=O)OCC)C(F)(F)F)C(F)(F)F (centres undefined)
2. COc1cc(/C=C(\OC(C)=O)c2ccc3c(c2)OCO3)cc(OC)c1OC

["> 100 µM", "> 100 µM"]

* * *

Test system: OVCAR-5 ovarian
Test Details: NCI tumour cell line growth inhibition, 48 h
Value Kind: TGI

Molecule	Target Entity	Value Kind	Test Value
CCN(CC)CCCC(C)NC(=O)c1ccc2c(c1)C(=O)c1ccccc1C2=O (stereo not given)	OVCAR-5 ovarian	TGI	34.2 µM
Cc1ccc(S(=O)(=O)NC(=O)NC(Cc2ccc(O)c(O)c2)C(=O)O)cc1 (stereo not given)	OVCAR-5 ovarian	TGI	> 100 µM
C=C1C[C@@]2(C)C(CC[C@]3(C)C2CC=C2C4CC(C)(C)C[C@@H](OC(=O)/C(C)=C\C)[C@]4(C(=O)O)CC[C@]23C)C(C)(C)C1=O (stereo not given in full)	OVCAR-5 ovarian	TGI	10.3 µM

// input: 2 molecules below; output: TGI for each
1. CSCCC(NC(=O)OCc1ccccc1)NC(=O)OCc1ccccc1
2. Nn1c(Cc2ccccc2)n[nH]c1=O

1. > 100 µM
2. > 100 µM

* * *

Test system: OVCAR-8 ovarian
Test Details: NCI tumour cell line growth inhibition, 48 h
*1 amine or outer side, *2 acyl side, *3 side chain or, on linkers, in order; H or OH if unused. Where a SMILES comes first, the peptide text is derived from it. [ ]: non-standard residue; d: D form. X56 = CC[C@H](C)[C@H](OC(=O)[C@@H](C)[C@@H](CC)N[*:1])C(=O)[*:2]; X32 = C[C@H](N[*:1])C(=O)C(C)(C)C(=O)[*:2]; NMeY = CN[C@@H](Cc1ccc(O)cc1)C(=O)O; NMeL = CN[C@@H](CC(C)C)C(=O)O; NMeV = CN[C@H](C(=O)O)C(C)C
Value Kind: GI50

Compound	Value Kind	Test Value
O=C1CCS/C(=N\S(=O)(=O)c2ccc(N3N=C4c5ccccc5CC4C3c3cccs3)cc2)N1C(=O)c1ccccc1 (configuration not stated)	GI50	0.816 µM
NC1=Nc2cc(OCCCN3Cc4ccccc4C3)c(OCC3CC3)cc2C12CCCC2	GI50	3.71 µM
O=C1CS/C(=N\S(=O)(=O)c2ccc(N3N=C4c5ccccc5CC4C3c3ccc(Cl)cc3)cc2)N1c1ccccc1 (configuration not stated)	GI50	34.6 µM
OCc1ccc(N(CCN2CCCC2)Cc2ccc(F)cc2)cc1Cl	GI50	14 µM
N#Cc1ccc2c(c1)C(=O)c1c-2n(CCCN)c(=O)c2cc([N+](=O)[O-])ccc12	GI50	0.29 µM
O=C(Nc1cccc(-n2cc(-c3ccncc3)c(-c3ccc(O)c(Cl)c3)n2)c1)Nc1cccc(C(F)(F)F)c1	GI50	2.41 µM
CC[C@H](C)[C@@H]1OC(=O)[C@@H](C)[C@@H](CC)NC(=O)[C@H](C)NC(=O)C(C)(C)C(=O)[C@H](C)NC(=O)[C@H](Cc2ccc(OC)cc2)N(C)C(=O)[C@H](C(C)C)N(C)C(=O)CNC(=O)[C@H](CC(C)C)N(C)C(=O)CNC1=O (cyclo(A[X56]G[NMeL]G[NMeV][NMeY](Me)[X32]))	GI50	0.0335 µM
C=C1C(=O)O[C@H]2[C@H]1CC/C(COC(=O)c1ccccc1)=C\CC[C@@]1(C)O[C@@H]21	GI50	2.28 µM

Hi there! I need GI50 for each item below, if you can.
1. CCSc1nnc(-c2ccc3ccccc3c2O)n1-c1ccc(Cl)cc1
2. OCC(O)C(O)C(O)/C=N/Nc1nc2ccccc2nc1-c1ccccc1 (configuration not stated)
3. Cc1ccc(Sc2sc(-c3ccccc3)nc2[P+](c2ccccc2)(c2ccccc2)c2ccccc2)cc1
4. N#Cc1c(N)nc(N2CCOCC2)c(C#N)c1-c1ccccc1Cl
5. Cn1c(=O)c(Oc2ccccc2)cc2cnc(NC3CCOCC3)nc21
6. COc1ccc(N(C)c2c3ccccc3nc3[nH]c4ccccc4c23)cc1
7. CCCN(CCSSCCNc1nc(N(C)O)nc(N(C)O)n1)c1nc(N(C)O)nc(N(C)O)n1
8. CN1CCN(c2ccc(C(=O)Nc3cc(-c4cccc(NS(=O)(=O)c5ccccc5)c4)[nH]n3)cc2)CC1

1. 5.5 µM
2. 91.1 µM
3. 0.305 µM
4. 42 µM
5. > 25 µM
6. 0.798 µM
7. 5.26 µM
8. 13.4 µM

Please provide the recorded GI50 for `COc1ccc2c(c1)/C(=N/OC(C)=O)c1c-2c(=O)[nH]c2ccccc12` , tested on OVCAR-8 ovarian.
14.7 µM

* * *

System: OVCAR-5 ovarian
Test Details: NCI tumour cell line growth inhibition, 48 h
Please respond with reported TGI for every item in the list.
One number for each entry, in µM.

Some entries whose results are on file:
Molecule Smiles	Target Entity	Unit Tag	TGI
CNCCCNCCCN1C(=O)c2ccc3c4c(ccc(c24)C1=O)C(=O)N(CCCNCc1ccccc1OC)C3=O	OVCAR-5 ovarian	µM	4.14
CC(=O)Oc1ccc(/C=C/C(=O)O[C@H]2CCCC[C@@H]2OC(=O)/C=C/c2ccc(OC(C)=O)c(OC(C)=O)c2)cc1OC(C)=O	OVCAR-5 ovarian	µM	28.4

# evaluate next
What value of TGI has been recorded for this entry: `Clc1ncc(Cl)c(Cl)n1`
34.2

* * *

Test system: HT29 colon
Test Details: NCI tumour cell line growth inhibition, 48 h
Value Kind: TGI

The cases that follow already have their TGI on record.
Compound	Value Kind	Test Value
C(=C\c1cc(-c2ccc3ccccc3n2)nc2ccc3ccccc3c12)/c1ccc2ccccc2n1	TGI	> 100 µM
CC1(O)CCC2(C#N)CCC1C2O (centres undefined)	TGI	> 100 µM
C#CC(O)/C=C/C(O)CCCC(O)CC#CC(O)C#CC(O)CCCC(O)/C=C/CCCC(=O)CCCCCCCCCCCCCCCC(O)C(O)C#CC(=O)O (centres undefined)	TGI	> 50 µM

// next entry
Given the compound `Clc1ccc(Nc2ccnc(NCCCNc3ccnc4cc(Cl)ccc34)n2)cc1` , what is its reported TGI?
2.83 µM

* * *

Kindly supply the reported TGI values for the records listed here.
System: MDA-MB-435
Test Details: NCI tumour cell line growth inhibition, 48 h

Molecule Smiles	TGI
Nc1nc(-c2cccc([N+](=O)[O-])c2)cc(-c2cc(-c3cccc([N+](=O)[O-])c3)nc(N)n2)n1	> 100 µM

Give one value of TGI per listed compound.
1. COc1ccc(-c2csc(NC(=O)c3cc(O)c(O)c(O)c3)n2)cc1
2. COc1ccccc1/C=C/C(=O)/C=C/c1ccccc1OC
3. Nc1ccc(Oc2ccc(C34CC5CC6C3CC3CC4C(C5)C6(c4ccc(Oc5ccc(N)c(O)c5)cc4)C3)cc2)cc1O
4. CS(=O)(=O)OCCN(CCOS(C)(=O)=O)c1ccc(C=O)cc1

1. > 33.3 µM
2. 5.61 µM
3. 29.3 µM
4. 24.6 µM

* * *

System: COLO 205 colon
Test Details: NCI tumour cell line growth inhibition, 48 h
Value Kind: TGI (µM)
Answers are plain numbers, in µM.

Molecule	Unit Tag	Test Value
C=C1C[C@@]2(C)C(CC[C@]3(C)C2CC=C2C4CC(C)(C)C[C@@H](OC(=O)/C(C)=C\C)[C@]4(C(=O)O)CC[C@]23C)C(C)(C)C1=O (stereo not given in full)	µM	17.6

Which TGI reading was recorded for the molecule `COc1ccc(N(/C=C/C(=O)C(F)(F)F)CC(=O)c2ccc(Cl)c(Cl)c2)cc1` ?
39.6

* * *

Provide the reported TGI of each item.
Tested on: HOP-62 NSCLC
Test Details: NCI tumour cell line growth inhibition, 48 h
One number for each entry, in µM.

Solved entries:
Compound	Target Entity	TGI [µM]
COc1ccc2c(c1)C1(C(=O)N2)C(C#N)=C(c2ccccc2)Nc2c1c(-c1ccccc1)nn2-c1ccccc1 (stereo not given)	HOP-62 NSCLC	7.07
c1ccc(C(CCN2CC3CCC(CC3)C2)c2ccccc2)cc1	HOP-62 NSCLC	70.5
Oc1ccc(C#CCOc2ccccc2)cc1CNCCN(Cc1ccccn1)Cc1ccccn1	HOP-62 NSCLC	2.96

Kindly review the next compound as well.
Write down the reported TGI of `C1=Nc2ccccc2C=Nc2ccccc2C=Nc2ccccc2C=Nc2ccccc21.[Cl-].[Pt+2]` , test system: HOP-62 NSCLC.
45.6
